Measured Cmax of individual entries
- Procedure text: Determination of inhibitor concentration in mouse plasma after intraperitoneal and oral dosing
- Assay type: in vivo
- Setup conditions: PO, 25 mg/kg, vehicle PEG400:H2O pH 2.3 30:70
Write the number in ng/mL without appending the unit.

Answered cases to consult:
                                   compound  readout_kind  data_value
0  Cc1cc(C(=O)Nc2cc(C(=O)c3ccc4c(/C=C/c5ccccn5)n[nH]c4c3)c(C)cc2C)n(C)n1 [Example 41(mm)]          Cmax         852
1  CC(=O)Nc1cc(C(=O)c2ccc3c(/C=C/c4ccccn4)n[nH]c3c2)ccc1C [Example 41(gg)]          Cmax        2079
2  CCn1nc(C)cc1C(=O)Nc1cccc(Oc2ccc3c(/C=C/c4c[nH]c(C)n4)n[nH]c3c2)c1 [Example 32(c)]          Cmax         161
3  Cc1cc(C(=O)Nc2cc(Nc3ccc4c(/C=C/c5ccccn5)n[nH]c4c3)ccc2C)n(C)n1 [Example 49(b)]          Cmax        5000
4  CCCn1nc(C)cc1C(=O)Nc1cc(C(=O)c2ccc3c(/C=C/c4ccccn4)n[nH]c3c2)ccc1C [Example 41(ii)]          Cmax        1826

Request: Param item = COc1cc(C(=O)Nc2cccc(C(=O)c3ccc4c(/C=C/c5ccccn5)n[nH]c4c3)c2)cc(Cl)n1 [Example 41(u)] ; retrieve measured Cmax.
Response: 224
